Reference source for all entries: the supplement of paper PMC4380931

relative viability: recorded values
# Tested on: C32
# PROTOCOL TEXT: relative viability (cell count relative to DMSO-treated control) (fraction of DMSO control); higher = more viable cells / less drug effect
# TEST CONTEXT: 72 h; 0.316 µM
Field format: numeric only.

Record excerpt, results attached:
{"SMILES DATA": "Cc1ccc(NC(=O)c2cccc(C(C)(C)C#N)c2)cc1Nc1ccc2ncn(C)c(=O)c2c1", "relative viability": 0.163}
{"SMILES DATA": "CN(C)CCOc1ccc(-c2nc(-c3ccncc3)c(-c3ccc4c(c3)CC/C4=N\\O)[nH]2)cc1", "relative viability": 0.436}
{"SMILES DATA": "CCCS(=O)(=O)Nc1ccc(F)c(C(=O)c2c[nH]c3ncc(Cl)cc23)c1F", "relative viability": 0.516}

What value of relative viability has been recorded for this entry: CCCS(=O)(=O)Nc1ccc(F)c(C(=O)c2c[nH]c3ncc(-c4ccc(Cl)cc4)cc23)c1F 0.684

What value of relative viability has been recorded for this entry: Cn1cnc2c(F)c(Nc3ccc(Br)cc3Cl)c(C(=O)NOCCO)cc21 0.347

====

# System: MZ7MEL
# PROTOCOL TEXT: relative viability (cell count relative to DMSO-treated control) (fraction of DMSO control); higher = more viable cells / less drug effect
# TEST CONTEXT: 48 h; 1 µM
relative viability: recorded values
Field format: numeric only.

Record excerpt, results attached:
{"SMILES DATA": "CCCS(=O)(=O)Nc1ccc(F)c(C(=O)c2c[nH]c3ncc(-c4ccc(Cl)cc4)cc23)c1F", "RESULT VALUE": 0.667}
{"SMILES DATA": "CN(C)CCOc1ccc(-c2nc(-c3ccncc3)c(-c3ccc4c(c3)CC/C4=N\\O)[nH]2)cc1", "RESULT VALUE": 0.608}
{"SMILES DATA": "Cn1cnc2c(F)c(Nc3ccc(Br)cc3Cl)c(C(=O)NOCCO)cc21", "RESULT VALUE": 0.504}

What value of relative viability has been recorded for this entry: Cc1ccc(NC(=O)c2cccc(C(C)(C)C#N)c2)cc1Nc1ccc2ncn(C)c(=O)c2c1 0.435

What value of relative viability has been recorded for this entry: CCCS(=O)(=O)Nc1ccc(F)c(C(=O)c2c[nH]c3ncc(Cl)cc23)c1F 0.608

====

# Tested on: WM115
# PROTOCOL TEXT: apoptotic fraction of cells (caspase-3 NucView488 positive); higher = more apoptosis
# TEST CONTEXT: 24 h; 0.0316 µM
PARAMETER MEASURED: apoptotic fraction of cells
Field format: numeric only.

{"SMILES DATA": "Cn1cnc2c(F)c(Nc3ccc(Br)cc3Cl)c(C(=O)NOCCO)cc21", "RESULT VALUE": 0.0515}
{"SMILES DATA": "CN(C)CCOc1ccc(-c2nc(-c3ccncc3)c(-c3ccc4c(c3)CC/C4=N\\O)[nH]2)cc1", "RESULT VALUE": 0.0512}
{"SMILES DATA": "CCCS(=O)(=O)Nc1ccc(F)c(C(=O)c2c[nH]c3ncc(-c4ccc(Cl)cc4)cc23)c1F", "RESULT VALUE": 0.0561}
{"SMILES DATA": "Cc1ccc(NC(=O)c2cccc(C(C)(C)C#N)c2)cc1Nc1ccc2ncn(C)c(=O)c2c1", "RESULT VALUE": 0.0535}

What value of apoptotic fraction of cells has been recorded for this entry: CCCS(=O)(=O)Nc1ccc(F)c(C(=O)c2c[nH]c3ncc(Cl)cc23)c1F 0.0513

====

relative viability: recorded values
# Tested on: MMACSF
# PROTOCOL TEXT: relative viability (cell count relative to DMSO-treated control) (fraction of DMSO control); higher = more viable cells / less drug effect
# TEST CONTEXT: 24 h; 0.01 µM
Field format: numeric only.

Record excerpt, results attached:
{"SMILES DATA": "Cn1cnc2c(F)c(Nc3ccc(Br)cc3Cl)c(C(=O)NOCCO)cc21", "TARGET DESC": "MMACSF", "PARAMETER MEASURED": "relative viability", "RESULT VALUE": 1.02}
{"SMILES DATA": "CCCS(=O)(=O)Nc1ccc(F)c(C(=O)c2c[nH]c3ncc(-c4ccc(Cl)cc4)cc23)c1F", "TARGET DESC": "MMACSF", "PARAMETER MEASURED": "relative viability", "RESULT VALUE": 0.887}
{"SMILES DATA": "CN(C)CCOc1ccc(-c2nc(-c3ccncc3)c(-c3ccc4c(c3)CC/C4=N\\O)[nH]2)cc1", "TARGET DESC": "MMACSF", "PARAMETER MEASURED": "relative viability", "RESULT VALUE": 0.999}

Any idea what relative viability came out for Cc1ccc(NC(=O)c2cccc(C(C)(C)C#N)c2)cc1Nc1ccc2ncn(C)c(=O)c2c1 on MMACSF? 0.978

Any idea what relative viability came out for CCCS(=O)(=O)Nc1ccc(F)c(C(=O)c2c[nH]c3ncc(Cl)cc23)c1F on MMACSF? 0.944

====

relative viability: recorded values
# System: RVH421
# PROTOCOL TEXT: relative viability (cell count relative to DMSO-treated control) (fraction of DMSO control); higher = more viable cells / less drug effect
# TEST CONTEXT: 72 h; 0.00316 µM

{"SMILES DATA": "Cc1ccc(NC(=O)c2cccc(C(C)(C)C#N)c2)cc1Nc1ccc2ncn(C)c(=O)c2c1", "relative viability": 0.956}
{"SMILES DATA": "CN(C)CCOc1ccc(-c2nc(-c3ccncc3)c(-c3ccc4c(c3)CC/C4=N\\O)[nH]2)cc1", "relative viability": 0.983}
{"SMILES DATA": "CCCS(=O)(=O)Nc1ccc(F)c(C(=O)c2c[nH]c3ncc(Cl)cc23)c1F", "relative viability": 0.978}
{"SMILES DATA": "Cn1cnc2c(F)c(Nc3ccc(Br)cc3Cl)c(C(=O)NOCCO)cc21", "relative viability": 1.01}

--- query ---
What value of relative viability has been recorded for this entry: CCCS(=O)(=O)Nc1ccc(F)c(C(=O)c2c[nH]c3ncc(-c4ccc(Cl)cc4)cc23)c1F 0.957

====

relative viability: recorded values
# Tested on: WM115
# PROTOCOL TEXT: relative viability (cell count relative to DMSO-treated control) (fraction of DMSO control); higher = more viable cells / less drug effect
# TEST CONTEXT: 72 h; 0.316 µM
Field format: numeric only.

{"SMILES DATA": "CCCS(=O)(=O)Nc1ccc(F)c(C(=O)c2c[nH]c3ncc(-c4ccc(Cl)cc4)cc23)c1F", "RESULT VALUE": 0.855}
{"SMILES DATA": "Cn1cnc2c(F)c(Nc3ccc(Br)cc3Cl)c(C(=O)NOCCO)cc21", "RESULT VALUE": 0.587}
{"SMILES DATA": "Cc1ccc(NC(=O)c2cccc(C(C)(C)C#N)c2)cc1Nc1ccc2ncn(C)c(=O)c2c1", "RESULT VALUE": 0.281}
{"SMILES DATA": "CN(C)CCOc1ccc(-c2nc(-c3ccncc3)c(-c3ccc4c(c3)CC/C4=N\\O)[nH]2)cc1", "RESULT VALUE": 0.683}

What value of relative viability has been recorded for this entry: CCCS(=O)(=O)Nc1ccc(F)c(C(=O)c2c[nH]c3ncc(Cl)cc23)c1F 0.86

====

# System: K2
# PROTOCOL TEXT: apoptotic fraction of cells (caspase-3 NucView488 positive); higher = more apoptosis
# TEST CONTEXT: 24 h; 1 µM
Respond with true for apoptotic fraction of cells values of 0.05 and above, false for values below.

{"SMILES DATA": "CCCS(=O)(=O)Nc1ccc(F)c(C(=O)c2c[nH]c3ncc(-c4ccc(Cl)cc4)cc23)c1F", "LABEL CLASS": "false"}
{"SMILES DATA": "Cc1ccc(NC(=O)c2cccc(C(C)(C)C#N)c2)cc1Nc1ccc2ncn(C)c(=O)c2c1", "LABEL CLASS": "true"}
{"SMILES DATA": "Cn1cnc2c(F)c(Nc3ccc(Br)cc3Cl)c(C(=O)NOCCO)cc21", "LABEL CLASS": "true"}

Continue with the next compound.
Record CN(C)CCOc1ccc(-c2nc(-c3ccncc3)c(-c3ccc4c(c3)CC/C4=N\O)[nH]2)cc1 ; criterion: apoptotic fraction of cells no lower than 0.05. Met? false

====

# System: LOXIMVI
# PROTOCOL TEXT: apoptotic fraction of cells (caspase-3 NucView488 positive); higher = more apoptosis
# TEST CONTEXT: 24 h; 0.01 µM
PARAMETER MEASURED: apoptotic fraction of cells
Field format: numeric only.

{"SMILES DATA": "CCCS(=O)(=O)Nc1ccc(F)c(C(=O)c2c[nH]c3ncc(Cl)cc23)c1F", "PARAMETER MEASURED": "apoptotic fraction of cells", "RESULT VALUE": 0.0479}
{"SMILES DATA": "CN(C)CCOc1ccc(-c2nc(-c3ccncc3)c(-c3ccc4c(c3)CC/C4=N\\O)[nH]2)cc1", "PARAMETER MEASURED": "apoptotic fraction of cells", "RESULT VALUE": 0.0389}
{"SMILES DATA": "Cn1cnc2c(F)c(Nc3ccc(Br)cc3Cl)c(C(=O)NOCCO)cc21", "PARAMETER MEASURED": "apoptotic fraction of cells", "RESULT VALUE": 0.0393}
{"SMILES DATA": "CCCS(=O)(=O)Nc1ccc(F)c(C(=O)c2c[nH]c3ncc(-c4ccc(Cl)cc4)cc23)c1F", "PARAMETER MEASURED": "apoptotic fraction of cells", "RESULT VALUE": 0.0524}

--- query ---
Any idea what apoptotic fraction of cells came out for Cc1ccc(NC(=O)c2cccc(C(C)(C)C#N)c2)cc1Nc1ccc2ncn(C)c(=O)c2c1 on LOXIMVI? 0.0347
